The entries below are paired with their reported Ratio.
Target: GABA-A receptor; anion channel (Rattus norvegicus) (UniProt O09028+P15431+P18506+P18508+P19969+P20236+P23574+P23576+P28471+P28473+P30191+P62813+P63079+P63138+Q91ZM7+Q9ES14)
Assay: Relative binding to GABA-A receptor in the presence and absence of GABA
Assay type: protein-complex assay
EXPERIMENTAL READOUT: Ratio

>  <QUERY SMILES>
O=c1c2cnc3ccc(Cl)cc3c2[nH]n1-c1ccccc1Cl

>  <EXPERIMENTAL READOUT>
Ratio

>  <DATA VALUE>
1.34

$$$$
>  <QUERY SMILES>
COc1ccc2ncc3c(=O)n(-c4ccccc4)[nH]c3c2c1

>  <EXPERIMENTAL READOUT>
Ratio

>  <DATA VALUE>
0.91

$$$$
>  <QUERY SMILES>
O=c1c2cnc3ccc(Cl)cc3c2[nH]n1-c1ccccc1

>  <EXPERIMENTAL READOUT>
Ratio

>  <DATA VALUE>
1.1

$$$$
>  <QUERY SMILES>
COc1ccc(-n2nc3c4ccccc4[nH]cc-3c2=O)cc1

>  <EXPERIMENTAL READOUT>
Ratio

>  <DATA VALUE>
0.94

$$$$
